Target: Interleukin-23 receptor (Homo sapiens, UniProt Q5VWK5)
Sequence (Q5VWK5 whole entry): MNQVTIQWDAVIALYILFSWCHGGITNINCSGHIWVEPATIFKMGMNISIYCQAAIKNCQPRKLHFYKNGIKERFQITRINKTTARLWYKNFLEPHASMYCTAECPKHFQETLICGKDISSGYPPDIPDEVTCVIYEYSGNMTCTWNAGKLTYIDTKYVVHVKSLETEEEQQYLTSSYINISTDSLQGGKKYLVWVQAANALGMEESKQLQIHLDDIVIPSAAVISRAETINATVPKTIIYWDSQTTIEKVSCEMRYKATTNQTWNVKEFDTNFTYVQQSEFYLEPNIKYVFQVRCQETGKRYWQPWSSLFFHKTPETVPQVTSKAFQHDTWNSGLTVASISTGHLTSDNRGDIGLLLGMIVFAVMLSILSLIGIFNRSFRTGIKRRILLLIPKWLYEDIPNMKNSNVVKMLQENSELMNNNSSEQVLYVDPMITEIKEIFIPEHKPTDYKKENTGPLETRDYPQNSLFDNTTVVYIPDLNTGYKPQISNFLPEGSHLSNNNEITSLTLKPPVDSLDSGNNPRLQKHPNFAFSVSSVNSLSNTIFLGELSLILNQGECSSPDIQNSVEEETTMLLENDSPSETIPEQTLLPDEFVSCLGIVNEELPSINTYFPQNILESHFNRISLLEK
Experiment: Inhibition of interleukin-23 binding to human interleukin-23 receptor incubated for 2 hrs by competitive binding ELISA
measured_attribute: IC50

{"columns": ["compound_string", "IC50"],
 "data": [
  ["CC(=O)N[C@H]1CCSC[C@@H](C(=O)N[C@@H](Cc2ccc(OCCN)cc2)C(=O)N[C@@H](Cc2c[nH]c3ccccc23)C(=O)N[C@@H](CCCN)C(=O)N[C@@H](CCC(=O)O)C(=O)N[C@@H](CC(N)=O)C(=O)NCC(N)=O)NC(=O)[C@H](CCC(N)=O)NC(=O)[C@H](Cc2c[nH]c3ccccc23)NC(=O)[C@H]([C@@H](C)O)NC(=O)[C@H](CCC(N)=O)NC1=O", "25 to 100 nM"]
]}

# evaluate next
Q) I would be grateful if you could share the reported IC50 for "CC(=O)N[C@@H](CS)C(=O)N[C@@H](C)C(=O)N[C@@H](CC(=O)O)C(=O)N[C@@H](Cc1c[nH]c2ccccc12)C(=O)N[C@H](C(=O)N[C@@H](CS)C(=O)N[C@@H](Cc1ccc(O)cc1)C(=O)N[C@@H](Cc1c[nH]c2ccccc12)C(=O)N[C@@H](Cc1cnc[nH]1)C(=O)N[C@H](C(=O)N[C@@H](Cc1ccccc1)C(=O)NCC(=O)NCCC(=O)N[C@H](CCCCN)C(=O)O)[C@@H](C)O)C(C)C" .
A) < 500 nM

###

Assay: Half life in simulated intestinal fluid at 20 uM by LC-MS/MS analysis
Type: ADME
measured_attribute: half-life at 20 µM

Guide cases for half-life at 20 µM, answers given:
{"columns": ["compound_string", "half-life at 20 µM"],
 "data": [
  ["CCCCCCCC[C@H](NC(=O)[C@H](Cc1ccc(OC)cc1)NC(=O)[C@@H]1CSCC[C@H](NC(C)=O)C(=O)N[C@@H](CCC(N)=O)C(=O)N[C@@H]([C@@H](C)O)C(=O)N[C@@H](Cc2c[nH]c3ccccc23)C(=O)N[C@@H](CCC(N)=O)C(=O)N1)C(=O)N[C@@](C)(CCCCN)C(=O)N[C@@H](CCCCNC(C)=O)C(=O)N[C@@H](CC(N)=O)C(=O)NCC(N)=O", "1 to 2 h"],
  ["CCCCCCCC[C@H](NC(=O)[C@@H]1CSCC[C@H](NC(C)=O)C(=O)N[C@@H](CCC(N)=O)C(=O)N[C@@H]([C@@H](C)O)C(=O)N[C@@H](Cc2c[nH]c3ccccc23)C(=O)N[C@@H](CCC(N)=O)C(=O)N1)C(=O)N[C@@H](Cc1ccc2ccccc2c1)C(=O)N[C@@](C)(CCCCN)C(=O)N[C@@H](CCCCNC(C)=O)C(=O)N[C@@H](CC(N)=O)C(=O)NCC(N)=O", "< 1 h"]
]}

# evaluate next
Q) I would be grateful if you could share the reported half-life at 20 µM for "CC(=O)N[C@H]1CCSC[C@@H](C(=O)N[C@@H](Cc2ccc(O)cc2)C(=O)N[C@@H](Cc2c[nH]c3ccccc23)C(=O)N[C@@H](CCCNC(=N)N)C(=O)N[C@@H](CCCCN)C(=O)N[C@@H](Cc2ccccc2)C(=O)NCC(=O)NCCOCC(=O)N[C@H](CCCCN)C(N)=O)NC(=O)[C@H](CCC(N)=O)NC(=O)[C@H](Cc2c[nH]c3ccccc23)NC(=O)[C@H]([C@@H](C)O)NC(=O)[C@H](CCCNC(=N)N)NC1=O" .
A) < 1 h
